conditions: human;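 note: value is a count of indexed literature references reporting granulomatous liver disease confirmed by histopathology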
For each entry below, report its Hepatotoxicity (granulomatous hepatitis) value.
Give bare numbers.

Worked examples follow.
>>> experimental_result("CCOC(=O)[C@H](CCc1ccccc1)N[C@@H](C)C(=O)N1CCC[C@H]1C(=O)O")
0
>>> experimental_result("O=C(NO)c1ccc(O)c(O)c1")
0
>>> experimental_result("CO[C@H]1/C=C/O[C@@]2(C)Oc3c(C)c(O)c4c(O)c(cc(O)c4c3C2=O)NC(=O)/C(C)=C\\C=C\\[C@H](C)[C@H](O)[C@@H](C)[C@@H](O)[C@@H](C)[C@H](OC(C)=O)[C@@H]1C [RIFAMYCIN]")
0

Return reported Hepatotoxicity (granulomatous hepatitis) values for all items listed beneath this line.
1. Nc1nc(O)c2ncn(COC(CO)CO)c2n1 [GANCICLOVIR]
2. CCC1=C(C[C@H]2NCCc3cc(OC)c(OC)cc32)C[C@H]2c3cc(OC)c(OC)cc3CCN2C1 [DEHYDROEMETINE]
3. CO[C@@]1(NC(=O)CSC(F)F)C(=O)N2C(C(=O)O)=C(CSc3nnnn3CCO)CO[C@@H]21 [FLOMOXEF]
4. CCN(CC)CCOc1ccc(C(=C(Cl)c2ccccc2)c2ccccc2)cc1 [CLOMIPHENE]
5. CC(Cc1ccccc1)(NC(=O)CN)c1ccccc1 (stereo not drawn) [REMACEMIDE]

**Result**
1. 0
2. 0
3. 0
4. 0
5. 0
